# Tested on: COLO 205 colon
# assay.procedure: NCI-60 one-dose screen, 48 h
# run.conditions: 10 µM unless noted
# Procedure: Cells are grown in 96 well plates and exposed to the test compound for 48 hours. Compounds are tested at a single concentration, which is 10^-5 M for most compounds. The reported endpoint is percent growth (GI% or GIPRCNT), where numbers from 0 - 100% represent growth inhibition, and numbers from -100% - 0 represent cell death. For example, a value of 40 represents 60% growth inhibition. A value of 0 means no net growth occurred over the course of the experiment. […]
Compounds without any hit were thinned out: in the full panel of roughly 83,000, 20% have a hit. Calls of active or inactive are those of the source. Rule for the calls: active = growth percent below 10; inactive = the rest.
Outcome (select one): active, inactive

Please review the entries below; each comes with its answer.
# compound.structure.string, label.class
measured = [
    ("CSc1nc(=S)c2nc(SC)n(-c3ccccc3)c2[nH]1", "inactive"),
    ("CCCCCN(CCCCC)CCCCCCCCN1CCCc2ccccc21", "inactive"),
    ("O=C1Nc2ccccc2/C1=C/C(=O)c1ccc(N2CCCCC2)cc1", "inactive"),
]

## Input // return assay outcome for CCN(CC)CCS(=O)(=O)CCNc1ccnc2cc(Cl)ccc12
## Output active

## Input // return assay outcome for O=C1NC(=O)c2cc([N+](=O)[O-])cc3cccc1c23
## Output inactive

----------
# Test system: OVCAR-3 ovarian
# assay.procedure: NCI-60 one-dose screen, 48 h
# run.conditions: 10 µM unless noted
Compounds without any hit were thinned out: in the full panel of roughly 83,000, 20% have a hit. Active and inactive are the calls of the source. The calls were made as follows: active = growth percent below 10; inactive = the rest.
Outcome (select one): y = active, n = inactive

# molecule, label.class
data = [
    ("CCc1ccc(NC(=O)N[C@@H](Cc2cc(F)cc(F)c2)C(=O)N[C@@H]2C(=O)N3C[C@H](O)C[C@H]3C(=O)N3CCOC[C@H]3C(=O)N[C@@H](C)C(=O)N3C[C@H](C)C[C@H]3C(=O)O[C@H]2C)cc1", "n"),
    ("c1ccc(-c2nc(N3CCCNCC3)c3nc(-c4ccccc4)oc3n2)cc1", "y"),
    ("CCN(CC)CCCC(C)Nc1ccnc2cc(Cl)c(SCc3ccccc3)cc12 (stereo not drawn)", "y"),
    ("CC1(C)CC[C@]2(C(=O)O)CC[C@]3(C)C(=CC[C@@H]4[C@@]5(C)C/C(=C/c6cccnc6)[C@H](O)C(C)(C)[C@@H]5CC[C@]43C)[C@@H]2C1", "y"),
]

## Input // return assay outcome for Ic1ccc2[nH]cc(SSc3c[nH]c4ccc(I)cc34)c2c1
## Output y

## Input // return assay outcome for O=C(N/N=C\c1cc(Cl)ccc1O)N/N=C/c1cc(Cl)ccc1O
## Output n

## Input // return assay outcome for c1ccc(-c2n[nH]c(-c3ccccn3)n2)nc1
## Output n

## Input // return assay outcome for O=c1c2c3c(sc2n2cnnc2n1Cc1ccccc1)CCCC3
## Output n

## Input // return assay outcome for O=C1CC(c2ccccc2)Cc2nc3ccc(Br)cc3cc21 (stereo not drawn)
## Output y

## Input // return assay outcome for O=C(CCCSc1nc(-c2ccccc2)cc(-c2ccccc2)n1)NO
## Output y

## Input // return assay outcome for C=C(C)[C@@H]1CC[C@]2(COC(=O)c3ccccc3C(=O)O)CC[C@]3(C)[C@H](CC[C@@H]4[C@@]5(C)CC[C@H](OC(=O)c6ccccc6C(=O)O)C(C)(C)[C@@H]5CC[C@]43C)[C@@H]12
## Output y

## Input // return assay outcome for Cc1cc(C)nc(SCC(=O)Nc2cccc(N=Cc3ccccc3O)c2)n1
## Output n

## Input // return assay outcome for CCOC(=O)c1nn(C2CCCCO2)c2ccc(NC(=O)CN3CCOCC3)cc12 (stereo not drawn)
## Output n

## Input // return assay outcome for CCNc1cc2c(cc1Br)-c1ccccc1C2=O
## Output n

## Input // return assay outcome for COc1cc2c(cc1OCCCCCOc1ccc(-n3c(C)nc4ccccc4c3=O)cc1)N=C[C@@H]1CCCN1C2=O
## Output y

## Input // return assay outcome for C=C(C)[C@@H]1CC[C@]2(C(=O)NCCNCCNCCN)CC[C@]3(C)[C@H](CC[C@@H]4[C@@]5(C)CCC(=O)C(C)(C)[C@@H]5CC[C@]43C)[C@@H]12
## Output y

Where these numbers come from: PubChem BioAssay (NCI)
